Biological target: Alpha adrenergic receptor 1A and 1D (Rattus norvegicus) (UniProt P23944+P43140)
Assay: Selectivity given as ratio of pKb value against Alpha-1D receptor to pKb value against alpha1A receptor in rat
Assay type: functional
propertyMeasured: Selectivity
No unit in the answer, please; the number alone is enough.

# count of solved cases: 3
Query for Alpha adrenergic receptor 1A and 1D (Rattus norvegicus) (UniProt P23944+P43140): what Selectivity does the record show for COc1cccc(OC)c1OCCNCC1CO[C@](C)(c2ccccc2)O1.O=C(O)C(=O)O (some centres not stated) ? 12

Query for Alpha adrenergic receptor 1A and 1D (Rattus norvegicus) (UniProt P23944+P43140): what Selectivity does the record show for COc1cccc(OC)c1OCCNCC1COC(c2ccc3ccccc3c2)O1.O=C(O)C(=O)O (configuration not stated) ? 7

Query for Alpha adrenergic receptor 1A and 1D (Rattus norvegicus) (UniProt P23944+P43140): what Selectivity does the record show for COc1ccccc1OCCNCC1COC(c2ccccc2)(c2ccccc2)O1.O=C(O)C(=O)O (configuration not stated) ? 13

New cases:
Query for Alpha adrenergic receptor 1A and 1D (Rattus norvegicus) (UniProt P23944+P43140): what Selectivity does the record show for O=C(O)C(=O)O.c1ccc(OCCNCC2COC(c3ccccc3)(c3ccccc3)O2)cc1 (configuration not stated) ? 162

Query for Alpha adrenergic receptor 1A and 1D (Rattus norvegicus) (UniProt P23944+P43140): what Selectivity does the record show for COc1cccc(OC)c1OCCNCC1CO[C@@H](c2ccccc2)O1.O=C(O)C(=O)O (some centres not stated) ? 0.7

Query for Alpha adrenergic receptor 1A and 1D (Rattus norvegicus) (UniProt P23944+P43140): what Selectivity does the record show for COc1cccc(OC)c1OCCNCC1CO[C@@H](C(c2ccccc2)c2ccccc2)O1.O=C(O)C(=O)O (some centres not stated) ? 1

Query for Alpha adrenergic receptor 1A and 1D (Rattus norvegicus) (UniProt P23944+P43140): what Selectivity does the record show for CN(CCOc1ccccc1)CC1COC(c2ccccc2)(c2ccccc2)O1.O=C(O)C(=O)O (configuration not stated) ? 10

Query for Alpha adrenergic receptor 1A and 1D (Rattus norvegicus) (UniProt P23944+P43140): what Selectivity does the record show for COc1cccc(OC)c1OCCNCC1CO[C@@](C)(c2ccccc2)O1.O=C(O)C(=O)O (some centres not stated) ? 11

Query for Alpha adrenergic receptor 1A and 1D (Rattus norvegicus) (UniProt P23944+P43140): what Selectivity does the record show for O=C(O)C(=O)O.c1ccc(OCCNCC2CO[C@H](c3ccccc3)O2)cc1 (some centres not stated) ? 45

Query for Alpha adrenergic receptor 1A and 1D (Rattus norvegicus) (UniProt P23944+P43140): what Selectivity does the record show for COc1cccc(OC)c1OCCNCC1CO[C@H](c2ccccc2)O1.O=C(O)C(=O)O (some centres not stated) ? 0.7
